- ASSAY OVERVIEW: photoluminescence quantum yield (fraction); solvent given as SMILES
- PROTOCOL CONDITIONS: in CO
OUTCOME MEASURE: photoluminescence quantum yield

MOLECULE	OUTCOME MEASURE	EXPERIMENTAL RESULT
C(=C\c1nc2ccccc2s1)/c1ccc(-c2nc3c4cccnc4c4ncccc4c3[nH]2)cc1	photoluminescence quantum yield	0.11
CCc1c(C)[nH]c(C2=[N+]3C(=Cc4c(C)c(CC)c(C)n4[B-]3(F)F)c3ccccc32)c1C	photoluminescence quantum yield	0.04
O=C1c2ccccc2-c2c(-c3cc(Cl)ccc3O)[nH]c(=O)n21	photoluminescence quantum yield	0.28
CCCSC1=[N+]2C(=C(c3ccccc3)c3ccc(SCCC)n3[B-]2(F)F)C=C1	photoluminescence quantum yield	0.42
COc1ccc2[nH]cc(/C=C/C3=[NH+]c4cccc5cccc3c45)c2c1	photoluminescence quantum yield	0.0486
COc1cc(N(c2ccccc2)c2ccccc2)ccc1C=C(C#N)C#N	photoluminescence quantum yield	0.006
c1ccc(N(c2ccccc2)c2ccc(-c3cncs3)cc2)cc1	photoluminescence quantum yield	0.53
COc1c2ccccc2c(OC)c2c1c1ccc(C(F)(F)F)cc1n2C	photoluminescence quantum yield	0.26
O=S(=O)(/N=c1\oc2cccc3c4c(-c5ccccc5)oc5cccc(c(c1-c1ccccc1)c23)c54)C(F)(F)F	photoluminescence quantum yield	0.78
CCOC(=O)C(C(=O)OCC)C1=[N+]2C(=C(c3ccc(C)cc3)c3ccc(C(C(=O)OCC)C(=O)OCC)n3[B-]2(F)F)C=C1	photoluminescence quantum yield	0.35
CC1=CC(/C=C/c2ccc(OCCCN=[N+]=[N-])cc2)=[N+]2C1=C(c1ccc(N(C)C)cc1)c1c(C)cc(C)n1[B-]2(F)F	photoluminescence quantum yield	0.59
CCCCc1ccc2ccc3c(CCCC)ccc4ccc1c2c43	photoluminescence quantum yield	0.6
Cc1ccc(C(=O)NN2C3=C(CC4=C2CCCC4=O)C(=O)CCC3)cc1	photoluminescence quantum yield	0.4
O=P1(c2ccccc2)C(c2cc(C(F)(F)F)cc(C(F)(F)F)c2)=Cc2c3ccc4cccc5ccc(c6cc(-c7ccc(N(c8ccccc8)c8ccccc8)cc7)n1c26)c3c45 (centres undefined)	photoluminescence quantum yield	0.004
CCC1=C(C)C2=Cc3cc4c(cc3B(O)N2C1=O)OCO4	photoluminescence quantum yield	0.3
CC(C)(C)c1ccc(C(C)(C)C)c(N2C(=O)c3cccc4c(-c5ccc(-c6ccccc6)s5)ccc(c34)C2=O)c1	photoluminescence quantum yield	0.34
C(=C\c1ccc(-c2nc3c4cccnc4c4ncccc4c3[nH]2)cc1)/c1ccncc1	photoluminescence quantum yield	0.19
CC1(C)CCc2c(c3ccccc3c3nc4c5c(c6ccccc6c4nc23)OC(C)(C)CC5)O1	photoluminescence quantum yield	0.62
COC(=O)c1nc2c(OCc3ccccc3)nc(N)nc2n1Cc1ccccc1	photoluminescence quantum yield	0.92

###

- ASSAY OVERVIEW: photoluminescence quantum yield (fraction); solvent given as SMILES
- PROTOCOL CONDITIONS: in CCOCC
OUTCOME MEASURE: photoluminescence quantum yield

COMPOUND	OUTCOME MEASURE	EXPERIMENTAL RESULT
COC(=O)C(Cc1ccc2oc(-c3ccc(N(C)c4ccccc4)cc3)nc2c1)NC(=O)OC(C)(C)C (stereo not given)	photoluminescence quantum yield	0.6
COC(=O)C(Cc1ccc2oc(-c3ccc(N(C)C)cc3)nc2c1)NC(=O)OC(C)(C)C (stereo not given)	photoluminescence quantum yield	0.99
O=c1ccc2cc3c(cc2o1)OCC3	photoluminescence quantum yield	0.06
CN(C)c1ccc(C2=Cc3c4ccccc4c4ccccc4[n+]3[B-](F)(F)O2)cc1	photoluminescence quantum yield	0.999
Cc1ccc(NC(=O)c2ccc(N(C)C)cc2)cc1	photoluminescence quantum yield	0.0034
CC1=CC(C)=[N+]2C1=C(c1ccccc1)c1c(C)cc(/C=C/c3ccc(N(C)C)cc3)n1[B-]2(F)F	photoluminescence quantum yield	0.83
CC(C)[Si]1(C(C)C)c2cc(C=C(C#N)C#N)ccc2-c2ccc(N(C)C)cc21	photoluminescence quantum yield	0.56
CN(C)c1ccc2c(c1)Cc1ccccc1-2	photoluminescence quantum yield	0.31
Nc1ccc2c3c(cccc13)C(=O)c1ccccc1-2	photoluminescence quantum yield	0.26
CC(C)[Si]1(C(C)C)c2cc(C=O)ccc2-c2ccc(N(c3ccccc3)c3ccccc3)cc21	photoluminescence quantum yield	0.76
Cn1cccc1-c1ccc(C#N)cc1	photoluminescence quantum yield	0.98
c1ccc(-c2ccc(-c3ccc(N(c4ccccc4)c4ccccc4)cc3)c3nsnc23)cc1	photoluminescence quantum yield	0.201
CN(CC(O)c1cccc(O)c1)c1ccc([N+](=O)[O-])c(C2CC(c3cccc4ccccc34)=NN2c2ccccc2)c1 (stereo not given)	photoluminescence quantum yield	0.23
O=[N+]([O-])c1ccc(F)cc1C1CC(c2cccc3ccccc23)=NN1c1ccccc1 (stereo not given)	photoluminescence quantum yield	0.2
CN(C)c1ccc(/C=C/C=C2\CC/C(=C\c3ccc(N(C)C)cc3)C2=O)cc1	photoluminescence quantum yield	0.073
CN(C)c1ccc(/C=C2\CC/C(=C\c3ccc(C#N)cc3)C2=O)cc1	photoluminescence quantum yield	0.074
CCCCN1c2ccccc2Sc2cc(/C=C/C3=Nc4ccc5ccccc5c4C3(C)C)ccc21	photoluminescence quantum yield	0.14
c1ccc2nc3cccc(-c4ccc(-n5c6ccccc6c6ccccc65)cc4)c3cc2c1	photoluminescence quantum yield	0.102
COc1ccc(C2=C3C(C)=CC(C)=[N+]3[B-](F)(F)n3c(/C=C/c4ccc(N(C)C)cc4)cc(C)c32)cc1	photoluminescence quantum yield	0.93
CC1=C(C(C)(C)C)C(C)=[N+]2C1=C(C)c1c(C)c(C(C)(C)C)c(C)n1[B-]2(F)F	photoluminescence quantum yield	0.43
